- ASSAYED TARGET: EGFR wild type (EGFR WT) (Homo sapiens (Human), UniProt P00533)
- Sequence (P00533 25-1210): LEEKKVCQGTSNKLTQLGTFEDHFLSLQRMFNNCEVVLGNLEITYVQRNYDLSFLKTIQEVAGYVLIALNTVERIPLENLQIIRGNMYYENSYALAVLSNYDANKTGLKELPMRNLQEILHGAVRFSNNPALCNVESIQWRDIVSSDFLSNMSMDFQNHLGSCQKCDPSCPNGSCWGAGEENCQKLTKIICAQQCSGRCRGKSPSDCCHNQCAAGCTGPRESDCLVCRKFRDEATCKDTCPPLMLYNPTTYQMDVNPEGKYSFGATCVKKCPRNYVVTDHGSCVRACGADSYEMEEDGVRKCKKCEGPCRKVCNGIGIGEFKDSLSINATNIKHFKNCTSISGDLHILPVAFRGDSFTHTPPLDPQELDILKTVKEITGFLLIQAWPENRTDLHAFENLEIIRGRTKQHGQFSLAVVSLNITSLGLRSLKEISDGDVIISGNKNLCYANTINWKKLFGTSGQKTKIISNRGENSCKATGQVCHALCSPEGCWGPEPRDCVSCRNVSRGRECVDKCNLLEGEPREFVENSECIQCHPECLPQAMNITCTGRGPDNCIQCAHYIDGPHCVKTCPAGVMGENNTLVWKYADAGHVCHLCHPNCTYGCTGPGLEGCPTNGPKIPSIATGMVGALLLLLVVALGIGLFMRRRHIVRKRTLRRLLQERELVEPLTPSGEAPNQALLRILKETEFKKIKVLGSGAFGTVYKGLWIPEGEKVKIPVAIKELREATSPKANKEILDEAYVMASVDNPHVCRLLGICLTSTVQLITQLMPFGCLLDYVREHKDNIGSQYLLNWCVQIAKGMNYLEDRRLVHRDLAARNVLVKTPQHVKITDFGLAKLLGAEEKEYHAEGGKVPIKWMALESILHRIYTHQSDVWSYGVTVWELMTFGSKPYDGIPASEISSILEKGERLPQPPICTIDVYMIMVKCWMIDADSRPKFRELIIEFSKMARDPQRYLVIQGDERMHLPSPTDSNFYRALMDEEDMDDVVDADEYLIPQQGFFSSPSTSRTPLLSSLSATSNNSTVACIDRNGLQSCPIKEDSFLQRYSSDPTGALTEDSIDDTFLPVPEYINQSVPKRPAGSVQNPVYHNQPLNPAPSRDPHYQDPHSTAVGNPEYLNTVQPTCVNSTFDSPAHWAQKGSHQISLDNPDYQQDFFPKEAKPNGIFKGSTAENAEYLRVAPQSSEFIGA
- PROTOCOL DESCRIPTION: Cellular Phosphorylation Assay, Assay 5 (EGF-stimulated EGFR phosphorylation, NIH 3T3 cells)
- Type: cell-based
- APPLIED CONDITIONS: EGF-stimulated EGFR WT phosphorylation
- Experimental: NIH 3T3 cells were engineered to express ErbB2 with Exon 20 YVMA insertion (HER2-YVMA (SEQ ID NO: 2); Assay 4) or EGFR wild type (EGFR WT; Assay 5) with constructs obtained from GenScript and grown in DMEM supplemented with 10% fetal bovine serum and 15 μg/ml blasticidin. […] Serially diluted compounds were added to the plates for 1 hour at 37° C./5% CO2. EGFR WT cells were stimulated with 100 ng/ml rEGF for an additional 10 minutes at 37° C./5% CO2. […]
Values of IC50 strictly less than 2000 nM map to true (1), and values of at least 2000 nM map to false (0).

In [3]: df
Out[3]:
                                    molecule      label
 0  C=CC(=O)N1[C@@H]2CC[C@H]1C[C@@H](c1ccc3ncnc(Nc4ccc(Oc5ccn6ncnc6c5)c(Cl)c4F)c3n1)C2 [Example 214]  false (0)
 1  C=CC(=O)N1CCCN(c2ccc3ncnc(Nc4ccc(Oc5ccc6c(c5)ncn6C)c(C)c4)c3n2)CC1 [Example 108]  false (0)
 2  C=CC(=O)N1CCC(Sc2ccc3ncnc(Nc4ccc(Oc5ccc6c(c5)ncn6C)c(C)c4F)c3n2)CC1 [Example 28]  false (0)
 3  C=CC(=O)N1C[C@H]2CC[C@@H]1C[C@@H]2c1ccc2ncnc(Nc3ccc(Oc4ccn5ncnc5c4)c(C)c3F)c2n1 (racemic) [Example 217]   true (1)
 4  C=CC(=O)N1CCN(c2ccc3ncnc(Nc4ccc(Oc5ccn6ncnc6c5)c(Cl)c4)c3n2)CC1(C)C [Example 74]   true (1)
 5  C=CC(=O)N1CCC(c2nc3c(Nc4ccc(Oc5ccn6ncnc6c5)c(C)c4F)ncnc3cc2OC)CC1 [Example 155]  false (0)
 6  C=CC(=O)N1CCN(c2ccc3ncnc(Nc4ccc(Oc5ccc6c(c5)ncn6C)c(C)c4)c3n2)CC1 [Example 105]   true (1)
 7  CC#CC(=O)N1CCN(c2ccc3ncnc(Nc4ccc(Oc5ccn6ncnc6c5)c(Cl)c4F)c3n2)C[C@H]1C [Example 178]   true (1)
 8  C=CC(=O)N1C[C@H](c2ccc3ncnc(Nc4cc(C)c(Oc5ccc6c(c5)ncn6C)cc4F)c3n2)C[C@H]1C [Example 192]  false (0)
 9  C=CC(=O)N1CC2CC(C1)N2c1ccc2ncnc(Nc3cc(Cl)c(Oc4ccn5ncnc5c4)cc3F)c2n1 [Example 45]  false (0)
10  C=CC(=O)N1[C@@H]2CC[C@H]1[C@H](c1ccc3ncnc(Nc4ccc(Oc5ccn6ncnc6c5)c(C)c4)c3n1)C2 (single isomer, unassigned) [Example 233]  false (0)
11  C=CC(=O)N1[C@@H]2CC[C@H]1CC(c1ccc3ncnc(Nc4ccc(Oc5ccc6c(c5)ncn6C)c(C)c4F)c3n1)C2 (mixture of isomers) [Example 143]  false (0)
12  C=CC(=O)N1CCN(c2ccc3ncnc(Nc4ccc(Oc5cnc6c(c5)ncn6C)c(C)c4F)c3n2)C[C@H]1C1CC1 [Example 165]  false (0)
